test system: P388 leukemia ip, CD2F1 mice, survival T/C; experiment: NCI In Vivo Anticancer Drug Screen. Data for tumor model P388 Leukemia (intraperitoneal) in CD2F1 (CDF1) mice; conditions: endpoint: median survival time; dose: 200.0 mg/kg/injection; schedule: Q01DX001 (ip); vehicle: saline with Tween-80; higher = longer survival
Inconclusive results and toxic doses are left out.
The following compounds are shown together with reported T/C values.

| Compound | T/C |
| --- | --- |
| CNC(=O)NS(=O)(=O)c1cnccc1Cl | 100 % of control |
| COc1ccc(/C=N/Nc2nnc3c4ccccc4n(C)c3n2)cc1 | 91 % of control |
| Nc1nc(=O)cnn1C1OC(CO)C(O)C1O (stereo not drawn) | 97 % of control |
| COC(=O)[C@@H]1CCCN1C(=O)C(=O)N1CCC[C@H]1C(=O)OC | 103 % of control |
| COc1ccc(C(O)C2CCCN(c3ccccc3)S2(=O)=O)cc1 (stereo not drawn) | 94 % of control |
| Oc1ccc2ccccc2c1/C=N/c1nc(-c2ccc(Cl)cc2)cs1 | 90 % of control |
| O=C1CSC(c2ccccc2O)N1c1nc(-c2ccc(Cl)cc2)cs1 (stereo not drawn) | 98 % of control |
| CC(=O)OCC1OC(n2ccc3c(=O)n(C)c(=O)[nH]c32)C(OC(C)=O)C(OC(C)=O)C1OC(C)=O (stereo not drawn) | 105 % of control |
| CCC(c1ccc(OC)cc1)C(NCC(=O)N/N=C1/C=C2CC[C@H]3[C@@H]4CC[C@H](O)[C@@]4(C)CC[C@@H]3[C@@]2(C)CC1)c1ccc(OC)cc1 (stereo partly drawn) | 110 % of control |
| Cc1ccc2c(c1)nc(-c1ccccn1)n2CCc1ccncc1 | 101 % of control |
| CCOC(=O)C(C(=O)C(F)(F)C(F)(F)C(F)(F)C(=O)C(C(=O)OCC)=P(c1ccccc1)(c1ccccc1)c1ccccc1)=P(c1ccccc1)(c1ccccc1)c1ccccc1 | 99 % of control |
| COC(=O)Nc1cn2c(n1)sc1ccccc12 | 96 % of control |
| O=C(/C=C/c1cccs1)c1ccc(Nc2ccnc3cc(Cl)ccc23)cc1 | 98 % of control |

###

system: P388 leukemia ip, CD2F1 mice, survival T/C; assay: NCI In Vivo Anticancer Drug Screen. Data for tumor model P388 Leukemia (intraperitoneal) in CD2F1 (CDF1) mice; details: endpoint: median survival time; dose: 50.0 mg/kg/injection; schedule: Q01DX009 (ip); vehicle: Klucel (hydroxypropylcellulose) (HPC); higher = longer survival
Toxic doses and inconclusive results are not listed.
The following compounds are shown together with reported T/C values.

| Compound | Assayed System | T/C |
| --- | --- | --- |
| CCn1c2ccccc2c2cc(N=Nc3cc4ccccc4cc3O)ccc21 | P388 leukemia ip, CD2F1 mice, survival T/C | 104 % of control |
| COc1ccc(CC(C#N)c2ccc(Cl)cc2)cc1 (stereo unspecified) | P388 leukemia ip, CD2F1 mice, survival T/C | 107 % of control |
| Cc1c(N2CCCC2)cc2c(c1-n1cccc1)C(C)(C)CC2(C)C | P388 leukemia ip, CD2F1 mice, survival T/C | 102 % of control |
| CC1OC(C)(C)OC1C(=O)O (stereo unspecified) | P388 leukemia ip, CD2F1 mice, survival T/C | 89 % of control |
| CC(c1c[nH]c2ccccc12)N1CCCCC1 (stereo unspecified) | P388 leukemia ip, CD2F1 mice, survival T/C | 113 % of control |
| COc1cc2c(c(OC)c1OC)CCCC2=O | P388 leukemia ip, CD2F1 mice, survival T/C | 111 % of control |
| C1CCNCC1.O=C([CH-]C(=O)C(F)(F)F)c1cccs1.O=C([CH-]C(=O)C(F)(F)F)c1cccs1.O=C([CH-]C(=O)C(F)(F)F)c1cccs1.O=C([CH-]C(=O)C(F)(F)F)c1cccs1.[Eu+3] | P388 leukemia ip, CD2F1 mice, survival T/C | 109 % of control |
| CC1(C)OP2(O)(OC(C)(C)c3ccccc32)c2ccccc21 | P388 leukemia ip, CD2F1 mice, survival T/C | 99 % of control |
| CSC(=S)NNC1=NCCCCC1 | P388 leukemia ip, CD2F1 mice, survival T/C | 106 % of control |
| COC12C(COC(=O)NCCO)C3=C(C(=O)C(C)=C(N)C3=O)N1CC1NC12 (stereo unspecified) | P388 leukemia ip, CD2F1 mice, survival T/C | 104 % of control |
| CN(C(=O)c1ccc(N)cc1)C1CCN(C2CCCCC2)C1 (stereo unspecified) | P388 leukemia ip, CD2F1 mice, survival T/C | 103 % of control |

Hello, the source for this data is PubChem BioAssay AID330, in case you need it.
